Hello, the source for this data is PubChem BioAssay (NCI), in case you need it.

- Test system: SK-MEL-2 melanoma
- testDetails: NCI tumour cell line growth inhibition, 48 h
Short version: TGI at least 50 µM is class 1, less is class 0.

In [3]: df
Out[3]:
                                   compound         testsystem  classassignment
0  COc1ccc(NC(=O)CC(=O)N2N=C(c3ccccc3)C(N=Nc3ccc(S(=O)(=O)CCOS(=O)(=O)O)cc3)C2=O)cc1 (centres undefined)  SK-MEL-2 melanoma          class 1
1  COC(=O)[C@@H]1C=C[C@H](OC2OC(COC(C)=O)C(OC(C)=O)C(OC(C)=O)C2OC(C)=O)n2c(=O)c3ccccc3c(=O)n21 (some centres undefined)  SK-MEL-2 melanoma          class 0
2  COC(=O)[C@H](Cc1ccccc1)NC(=O)N1CCCN(C(=O)N[C@@H](Cc2ccccc2)C(=O)OC)CCCN(C(=O)N[C@@H](Cc2ccccc2)C(=O)OC)CCC1  SK-MEL-2 melanoma          class 0
3  CCOC(=O)c1sc2ncn(Cc3cccc(Br)c3)c(=O)c2c1C  SK-MEL-2 melanoma          class 1
4  O=[N+]([O-])c1ccc(-c2nc3ccc([N+](=O)[O-])cc3[nH]2)cc1  SK-MEL-2 melanoma          class 1
5  C#CCN(Cc1nc2cc(C(F)(F)F)ccc2nc1-c1ccccc1)c1ccc(OC(F)(F)F)cc1  SK-MEL-2 melanoma          class 1
6        CC(C)c1nc2cc(C(F)(F)F)ccc2[nH]c1=O  SK-MEL-2 melanoma          class 1
7  CS(=O)(=O)OC1CN2CCC1CC2 (centres undefined)  SK-MEL-2 melanoma          class 1
8          Cc1cccc2cc3c(ccc4ccccc43)c[n+]12  SK-MEL-2 melanoma          class 0

====

- System: PC-3 prostate
- testDetails: NCI tumour cell line growth inhibition, 48 h; in the data active means GI50 below about 0.43 µM; inactive means the rest
Outcome codes: true for active, false for inactive

                                    compound  classassignment
 0  O=C(Nc1ccc(F)cc1)Nc1ccccc1CNc1nc(Nc2ccc(OCCN3CCCC3)cc2)ncc1Cl            false
 1  O=C1CC(c2cccc(O)c2)C2(C(=O)NC(=S)NC2=O)C(c2cccc(O)c2)C1 (centres undefined)            false
 2       CCCc1cc(O)c2c3c(c(=O)oc2c1)CN(C)CC3            false
 3  Cn1ccnc1C(=O)/C=C/c1ccc(C(=O)Nc2ccc(S(F)(F)(F)(F)F)cc2)cc1            false
 4  Cc1ccc(NC(=O)Cc2ccc(/C=C/C(=O)c3ncc[nH]3)cc2)cc1            false
 5  COc1ccc(-n2cc(-c3cc(OC)c(OC)c(OC)c3)nc2SCc2ccccc2)cc1            false
 6  N#Cc1cccc(OCc2nc(N)nc(N)c2-c2ccc(Cl)c(Cl)c2)c1            false
 7  CC(C)c1c(C(=O)Nc2ccccc2)c(-c2ccccc2)c(-c2ccc(F)cc2)n1CC[C@@H]1CC=CC(=O)O1            false
 8  O=C1C2C(C(=O)[N]1[Hg][c]1cccs1)C1(Cl)C(Cl)=C(Cl)C2(Cl)C1(Cl)Cl (centres undefined)            false
 9       CC(=O)Nc1ccc(/C=C/C(=O)c2ccccc2)cc1            false
10      Oc1ccc(CN2CCC(N3CCOCC3)CC2)c2cccnc12            false
11  CCOC(=O)c1sc2ncn(Cc3cccc(Br)c3)c(=O)c2c1C            false
12  CC(=O)N1N=C(c2ccc(Nc3nc(Nc4ccc(Cl)cc4)nc(Nc4ccc(Cl)cc4)n3)cc2)CC1c1ccc([N+](=O)[O-])cc1 (centres undefined)            false
13  COC(=O)C1=C(C)NC(C)=C(C(=O)OC)C1/C=C(\Cl)c1ccc(Cl)c(Cl)c1            false
14  Cc1ccc2c(c1)c1nc3cc(C)c(C)cc3nc1n2CCN(C)C            false
15  CC/C(=C(/c1ccc(OCCN(C)C)cc1)c1ccc(OC(=O)CCC(=O)c2c(C)[nH]c(/C=C3\N=C(c4ccc[nH]4)C=C3OC)c2C)cc1)c1ccccc1            false
16  COc1cccc(C2C3=C(COC3=O)N(CCO)c3cc(OC)ccc32)c1 (centres undefined)             true
17     CCOc1ccc(-c2cnnn2-c2nonc2-n2cccc2)cc1             true
18  COc1cc(-c2nc3sccn3c2-c2ccnc(NCCNS(=O)(=O)c3ccc(Cl)cc3)n2)ccc1F            false

====

- Test system: SR leukemia
- testDetails: NCI tumour cell line growth inhibition, 48 h
Examples of molecules with documented TGI follow.
recordedEndpoint: TGI

In [3]: df
Out[3]:
                                    molecule  recordedendpoint    result
 0         O=C(O)c1cc(=O)[nH]c(SCc2ccccc2)n1               TGI  > 100 µM
 1  CC[O-].CC[O-].O=C([CH-]C(=O)c1cccnc1)c1ccccc1.O=C([CH-]C(=O)c1cccnc1)c1ccccc1.[Ti+4]               TGI  > 100 µM
 2          Nc1ccccc1-c1ccc([N+](=O)[O-])cc1               TGI  > 100 µM
 3            C/C(=N\NC(N)=S)c1cc(C)c(C)cc1C               TGI  > 100 µM
 4            S=c1nc(Cc2ccc(Cl)cc2)[nH][nH]1               TGI  > 100 µM
 5     N#Cc1c(NC(=S)Nc2ccc(Cl)cc2)sc2c1CCCC2               TGI   89.1 µM
 6  O=C1CS(=O)(=O)C(c2cccc(Oc3ccccc3)c2)N1c1cccc(Cl)c1 (stereo unspecified)               TGI   41.2 µM
 7  CC(=O)NNc1nc(C)c(C(/C=C/c2ccc([N+](=O)[O-])cc2)=N/N)s1               TGI  > 100 µM
 8  CC1(C)C2CCC(CN)(C2)C1O (stereo unspecified)               TGI  > 100 µM
 9  S=C1Cc2c(-c3ccc(Cl)cc3)cc(-c3ccccc3)nc2-c2ccccc2N1               TGI  > 100 µM
10  N#CC(c1ccnc(Cl)n1)c1nc2ccccc2s1 (stereo unspecified)               TGI   28.7 µM

====

- System: A498 renal
- testDetails: NCI tumour cell line growth inhibition, 48 h
Short version: TGI at least 9 µM is Y, less is N.

>>> df
                                    compound  classassignment
 0  c1ccc2c(c1)Nc1ccccc1[P+]21c2ccccc2Nc2ccccc21                N
 1  C/C(=C\c1ccccc1)C(=O)NCc1ccc(C(=O)NCCC(C)C)cc1                Y
 2      O=S(=O)(O)CCCC1S(=O)(=O)OCCOS1(=O)=O                Y
 3  CCC1C(=O)OCc2c1cc1n(c2=O)Cc2cc3ccccc3nc2-1 (configuration not stated)                Y
 4  CC(C)c1c(C(=O)Nc2ccccc2)c(-c2ccccc2)c(-c2ccc(F)cc2)n1CC[C@@H]1CC=CC(=O)O1                Y
 5  Cc1ccc(S(=O)(=O)n2c3c(c4ccccc42)CCN2C(=O)C(S(=O)(=O)c4ccccc4)=CCC32)cc1 (configuration not stated)                N
 6  N#CC1Cc2cc3c(cc21)OCO3 (configuration not stated)                Y
 7               c1ccc2c(c1)sc1c3cnccc3ccc21                Y
 8  COc1ccc2c(c1)C(=O)N1CCOC1C2C(=O)O (configuration not stated)                Y
 9  COc1ccc2c(c1)=C(C=C1C=CN(O)C=C1)C(=O)N=2                Y
10     CCOc1ccc(-c2cnnn2-c2nonc2-n2cccc2)cc1                N
11  O=C(CC(=O)Nc1cccc(Cl)c1)NNCC(=O)Nc1nnc(-c2ccccc2)s1                Y
12  CC(=O)NNc1nc(C)c(C(/C=C/c2ccc([N+](=O)[O-])cc2)=N/N)s1                Y
13           C=CCOC(=O)Cn1cc(C)c(=O)[nH]c1=O                Y
14           O=c1c2ccccc2c(Br)c(Br)c2ccccc12                Y
15  O=C(NCCCCN(CCCNC(=O)C(F)(F)F)Cc1ccc2ccccc2c1)C(F)(F)F                Y
